- Experiment notes: Antiproliferative activity against human L02 cells assessed as inhibition of cell growth incubated for 72 hrs by SRB assay
- Assay type: toxicity, cell-based
Measured property: IC50 at 72 h (µM)

>>> observed_value("Cc1ccc(NC2=CC(=O)c3nc4n(c3C2=O)[C@H]2OC[C@@H](O)[C@H]2OC4)cc1C")
24.8
